# Assay: BET inhibitor-based combinations targeting novel dependencies in MECOM-rearranged (r) AML: MV-4-11 cell line (AID 2202233); note: nearly all actives have a fitted effect of over 45% in size; note: potency is the fitted concentration of half-maximal effect
# Protocol conditions: MV-4-11 AML viability, CellTiter-Glo luminescence, 48 h; series mostly up to 46 µM
Results filed as inconclusive are left out. The source made the active and inactive calls. Calls come from the whole dose curve; as a rule, active = well fitted inhibition curve with a large enough effect; inconclusive = small, poorly fitted or top-dose-only effect; inactive = no such curve, though single readings can be large or run the other way.
Reported metric: Potency

Study these solved cases before continuing.
>>> df
                         compound_structure  reported_metric    reported_value
0  CC[C@@H](C)[C@H](NC(=O)[C@H](CC1CCCCC1)NC(=O)c1ccno1)C(=O)N1CCC2(CCc3ccccc32)CC1          Potency          inactive
1  NC(=O)c1ncn([C@@H]2O[C@H](CO)[C@@H](O)[C@H]2O)c1N          Potency          inactive
2    O=C1C(Cl)=C(NCCN2CCOCC2)C(=O)c2ncccc21          Potency  2.09 µM (active)
3  NCCOc1cc(C(=O)Nc2cc(OCCN)c3ccccc3n2)nc(C(=O)Nc2cc(OCCN)c3ccccc3n2)c1          Potency  16.6 µM (active)
4  C[C@]12CC[C@@H]3c4ccc(O)cc4CC[C@H]3[C@H]1[C@@H](O)[C@@H](O)[C@H]2O          Potency          inactive

// for each compound in input: emit Potency
1. O=c1c(O)c(-c2ccc(O)c(O)c2)oc2cc(O)cc(O)c12
2. CS(=O)(=O)c1ccc(C2=C(c3ccccc3)C(=O)OC2)cc1
3. CC(=O)c1c(C)c2cnc(Nc3ccc(N4CCNCC4)cn3)nc2n(C2CCCC2)c1=O
4. CC(=O)Nc1nc(C)c(-c2ccc(Cl)c(S(=O)(=O)NCCO)c2)s1

1: inactive; 2: inactive; 3: 6.61 µM (active); 4: 3.72 µM (active)
